- tgt: T1, APBA1_2, Q02410
- T1 sequence (Q02410 742-832, limits assumed, looked up): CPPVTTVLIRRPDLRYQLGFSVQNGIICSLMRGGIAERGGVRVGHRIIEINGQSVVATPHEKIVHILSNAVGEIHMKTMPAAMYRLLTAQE
- assay.method.text: holdup assay
- Set-up: key: below the threshold = too weak to quantify, mostly under pKd 3.1 to 4
- run.parameters: plain residues with an end cap or a label only (N-terminal biotin on a linker: ado-ado)
Catalogue of pKd readings, one per entry.

binder	pKd
TNSKQGETTV [FZD1, Q9UP38]	3.74
KIEDVEITLV [FCHSD2, O94868]	4.07
PEKVSNTTVV [IGSF5, Q9NSI5]	3.51
